B1: ISL2 (parent)
chain: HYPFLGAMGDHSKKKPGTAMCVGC

- Variants of: B1
- METHOD NOTES: protein stability index of a GFP-peptide fusion (GPS, HEK-293T) (PSI 1-6); higher = more stable;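 further: lentivirally expressed fusions sorted by FACS into six bins by GFP to DsRed ratio, PSI derived from sequencing read proportions per bin multiplied by bin number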
- CONDITIONS USED: c terminus: a fixed tail appended
Is protein stability index at least 3? Then True. If not, False.

Query block: Answer whether protein stability index of F4R is greater than or equal to 3.
Result block: False

Query block: Dear colleague, could you confirm whether S12W has protein stability index at or above 3?
Result block: False

Query block: Form field: protein stability index at least 3? Entry: K15E
Result block: False

Query block: Textbook exercise: given the entry G6H , state whether its protein stability index is greater than or equal to 3.
Result block: False

Query block: Could you please find out whether G23V has protein stability index that meets 3 or exceeds it?
Result block: False

Query block: Tell me whether protein stability index is at least 3 here: K15A
Result block: False

Query block: Item K13N with protein stability index of 3 or above?
Result block: False

Query block: Check this variant for protein stability index at or above 3: G17C
Result block: True

Query block: I'd appreciate it if you could say whether F4V has protein stability index at least equal to 3.
Result block: True

Query block: protein stability index >= 3 for A19L ?
Result block: False

Query block: State whether the measured protein stability index reaches 3, counting equality as reaching it, for A7F
Result block: False

Query block: Please indicate if the recorded protein stability index for H11M meets or exceeds 3.
Result block: False

Query block: Hi team, for M8D , is the recorded protein stability index at or above 3?
Result block: True

Query block: Test whether the variant M8W records protein stability index of 3 or higher.
Result block: False

Query block: Check if protein stability index >= 3 (inclusive). Item: G9C
Result block: True

Query block: API: above_or_equal(metric=protein stability index, cutoff=3) for item T18P
Result block: False

Query block: Tell me whether protein stability index is at least 3 here: D10R
Result block: False

Query block: Is it the case that V22M has protein stability index reaching or exceeding 3?
Result block: False

Query block: I'd appreciate it if you could say whether G9A has protein stability index at least equal to 3.
Result block: True

Query block: Threshold query (protein stability index >= 3) on A7S
Result block: False

Query block: Is it the case that M20W has protein stability index reaching or exceeding 3?
Result block: False

Query block: Is protein stability index for P16I at or above 3?
Result block: False

Query block: // inclusive: protein stability index at least 3? input: H1C
Result block: False

Query block: Given the entry C24Q , answer whether its protein stability index meets or surpasses 3.
Result block: True

Query block: Check if protein stability index >= 3 (inclusive). Item: G17Y
Result block: False

Query block: Please tell me: is the variant S12I at or over 3 in terms of protein stability index?
Result block: False

Query block: Would you say V22N shows protein stability index at minimum 3?
Result block: True

Query block: I'd appreciate it if you could say whether P3I has protein stability index at least equal to 3.
Result block: False

Query block: Could you please find out whether P16Y has protein stability index that meets 3 or exceeds it?
Result block: False

Query block: Hi team, for A19R , is the recorded protein stability index at or above 3?
Result block: False

Query block: Reported protein stability index reaches at least 3 for K14E ?
Result block: True

Query block: Threshold query (protein stability index >= 3) on V22G
Result block: True

Query block: Could you verify whether the entry A19D shows protein stability index of no less than 3?
Result block: True

Query block: Determine whether measured protein stability index meets or exceeds 3 for C24E
Result block: True

Query block: protein stability index >= 3 for C21F ?
Result block: False

Query block: Could you tell me if the measured protein stability index of G17A reaches 3 or more?
Result block: False

Query block: In plain terms: is recorded protein stability index at least 3 for H1E ?
Result block: False

Query block: Dear colleague, could you confirm whether F4T has protein stability index at or above 3?
Result block: True

Query block: Tell me whether protein stability index is at least 3 here: K14A
Result block: False

Query block: Does protein stability index meet or surpass 3 for S12P ?
Result block: False

Query block: Please indicate if the recorded protein stability index for K14F meets or exceeds 3.
Result block: False

Query block: Could you please find out whether T18M has protein stability index that meets 3 or exceeds it?
Result block: False

Query block: protein stability index >= 3 for P3R ?
Result block: False

Query block: Could you tell me if the measured protein stability index of G9K reaches 3 or more?
Result block: False

Query block: Check if protein stability index >= 3 (inclusive). Item: G6V
Result block: False

Query block: Item K15G with protein stability index of 3 or above?
Result block: False

Query block: Entry H1S : is its protein stability index no less than 3?
Result block: False

Query block: State whether the measured protein stability index reaches 3, counting equality as reaching it, for G6C
Result block: True

Query block: Identify whether the reported protein stability index of the following variant is 3 or greater: H1R
Result block: False

Query block: Say whether A7D shows protein stability index of 3 or more.
Result block: True

Query block: Does L5V have a reported protein stability index of at least 3?
Result block: False

Query block: Threshold query (protein stability index >= 3) on C21V
Result block: False

Query block: Assess whether reported protein stability index for M20Y sits at 3 or higher.
Result block: False

Query block: # bool: protein stability index of K14W >= 3
Result block: False

Query block: Could you tell me if the measured protein stability index of C24F reaches 3 or more?
Result block: False

Query block: Given the entry G23L , answer whether its protein stability index meets or surpasses 3.
Result block: False

Query block: hey, is protein stability index for this one >= 3? D10F
Result block: False

Query block: Quick check: does S12G have protein stability index greater than or equal to 3?
Result block: False

Query block: Check if protein stability index >= 3 (inclusive). Item: K14Y
Result block: False

Query block: Determine whether this variant has protein stability index no lower than 3: M20E
Result block: True

Query block: Kindly determine if protein stability index recorded for G23Y is above or exactly 3.
Result block: False

Query block: Kindly determine if protein stability index recorded for A19Y is above or exactly 3.
Result block: False

Query block: Reported protein stability index at or above 3? K14T
Result block: False

Query block: Form field: protein stability index at least 3? Entry: K13G
Result block: False

Query block: Entry A19G : is its protein stability index no less than 3?
Result block: False

Query block: Could you please find out whether D10Q has protein stability index that meets 3 or exceeds it?
Result block: False

Query block: protein stability index >= 3 for K13L ?
Result block: False

Query block: Determine whether this variant has protein stability index no lower than 3: P3Q
Result block: True

Query block: Please indicate if the recorded protein stability index for A7H meets or exceeds 3.
Result block: False

Query block: // inclusive: protein stability index at least 3? input: C24D
Result block: True

Query block: Hello, I need to know if H1I has measured protein stability index not below 3. Thanks!
Result block: False

Query block: Check this variant for protein stability index at or above 3: D10K
Result block: False

Query block: Identify whether the reported protein stability index of the following variant is 3 or greater: G9V
Result block: False

Query block: Determine whether this variant has protein stability index no lower than 3: M8E
Result block: True

Query block: I'd appreciate it if you could say whether K15L has protein stability index at least equal to 3.
Result block: False

Query block: Entry A19I : is its protein stability index no less than 3?
Result block: False

Query block: Reported protein stability index at or above 3? A7W
Result block: False

Query block: Hi team, for H1F , is the recorded protein stability index at or above 3?
Result block: False

Query block: Confirm if protein stability index reported for the variant M8A is 3 or above.
Result block: True

Query block: Identify whether the reported protein stability index of the following variant is 3 or greater: G17I
Result block: False

Query block: Is protein stability index for H11F at or above 3?
Result block: False

Query block: Kindly determine if protein stability index recorded for K13M is above or exactly 3.
Result block: False

Query block: Say whether P16N shows protein stability index of 3 or more.
Result block: False

Query block: Determine whether measured protein stability index meets or exceeds 3 for S12V
Result block: False

Values compiled from the supplement of paper PMC10567573.
